Reported CRF1R EC50 values for the following binders.
Target: CRF1R
Assay: cell-based or functional assay
Ends that are not written are not given here.

binder	CRF1R EC50 / µM
ZGPPISIDLPIILLRKMIEIEKQEKEKQQAANNARLLARI (C-terminal amide) [SEQ ID NO 290]	1
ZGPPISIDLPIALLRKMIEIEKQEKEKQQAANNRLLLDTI (C-terminal amide) [SEQ ID NO 306]	0.608
ZGPPISIDLPIFLLRKVIEIEKQEKEKQQAANNALLLATI (not fully specified; C-terminal amide) [SEQ ID NO 280]	1
IVLSLDVPIGLLQILLEKAAAEAEAAAKAAQEQILAHV-NH2 [SEQ ID NO 366]	1
NDDPPISIDLPLHLLRNMIEMARIENEREQAGLNAKYLAEV-NH2 [SEQ ID NO 259]	0.82
ZGPPISIDLPFQLLRLLIEIEKQEKEKQQAANNALLLATI (C-terminal amide) [SEQ ID NO 360]	0.157
ZGPPISIDLPTYLLRKMIEIEKQEKEKQQAANNALLLATI (C-terminal amide) [SEQ ID NO 233]	1
NDDPPISIDLPYYLLRNMIEMARIENEREQAGLNAKYLAEV-NH2 [SEQ ID NO 267]	1
ZGPPISIDVPTYLLRKMIEIEKQEKEKQQAANNRLLLDTI (C-terminal amide) [SEQ ID NO 253]	1
ZGPPISIDLPLQLLEKMIEIEKQEKEKQQATTNARLLDRV (C-terminal amide) [SEQ ID NO 247]	1
ZGPPISIDLPLWLLRKMIEIEKQEKEKQQAANNRLLLDTI (C-terminal amide) [SEQ ID NO 218]	0.0984
ZGPPISIDLPFYLLRKMIEIEKQEKEKQQAANNALLLATI (C-terminal amide) [SEQ ID NO 231]	0.094
DNPSLSIDVPLFLLRTLLELEKTQSQRERAEQNARIFARV-NH2 [SEQ ID NO 385]	1
ZGPPISIDLPYQLLRKMIEIEKQEKEKQQAANNARLLAR (C-terminal amide) [SEQ ID NO 287]	1
ZGPPISIDLPFQLLRKVIEIEKQEKEKQQAANNAQLLAHI (not fully specified; C-terminal amide) [SEQ ID NO 273]	1
ZGPPISIDLPFQLLRKVIEIEKQEKEKQQAANNARLLDTI (C-terminal amide) [SEQ ID NO 278]	1
NDDPPISIDLPLYLLRNMIEMARIENEREQAGLNAKYLAEV-NH2 [SEQ ID NO 271]	0.815
NDDPPISIDLPLLLLRNMIEMARIENEREQAGLNAKYLAEV-NH2 [SEQ ID NO 268]	1
DNPSLSIDLPLLLLRTLLELEKTQSQRERAEQNAHIFAHV-NH2 [SEQ ID NO 328]	1
ZGPPISIDLPYHLLRKVIEIEKQEKEKQQAANNALLLATI (C-terminal amide) [SEQ ID NO 313]	0.704
ZGPPISIDLPFQLLRKVIEIEKQEKEKQQAANNAKLLAKI (not fully specified; C-terminal amide) [SEQ ID NO 274]	0.508
IVLSLDVPIGLLQILLEQARARAAREQATTNARILARVM-NH2 [SEQ ID NO 356]	1
ZGPPISIDLPLELLRKMIEIEKQEKEKQQAANNALLLDTI (C-terminal amide) [SEQ ID NO 235]	0.806
ZGPPISIDLPYHLLRKMIEIEKQEKEKQQAANNALLLDTI (C-terminal amide) [SEQ ID NO 314]	0.979

FYI, the data here is from patent US20030148958A1.
